Assay: qHTS of pediatric cancer cell lines to identify multiple opportunities for drug repurposing: Primary screen for SK-N-SH cells (AID 1347098); note: nearly all actives have a fitted effect of over 65% in size
Conditions: SK-N-SH viability, CellTiter-Glo luminescence, 48 h; series mostly up to 57 µM
Results filed as inconclusive are left out. Calls of active or inactive are those of the source. Calls come from the whole dose curve; as a rule, active = well fitted cell-killing curve with a large enough effect; inconclusive = small, poorly fitted or top-dose-only effect; inactive = no such curve, though single readings can be large or run the other way.
Can you answer with just one of these options? 1 (active), -1 (inactive)

[[record]]
compound = "CCCCCCCC/C=C\\CCCCCCCCN"
label_value = -1

[[record]]
compound = "c1ccc(-c2nc[nH]c2-c2ccccc2)cc1"
label_value = -1

[[record]]
compound = "CCCCCCCCCCCCCC[N+](C)(C)Cc1ccccc1"
label_value = 1

[[record]]
compound = "CCN(CC)CCOc1ccc2c(c1)C(=O)c1cc(OCCN(CC)CC)ccc1-2"
label_value = 1

[[record]]
compound = "COc1cc(O)c(C(=O)c2ccccc2)cc1S(=O)(=O)O"
label_value = -1

[[record]]
compound = "CC(=O)N[C@@H](CCC(=O)O)C(=O)O"
label_value = -1


Any idea what this test logged for Cn1c(=O)c2[nH]c(Br)nc2n(C)c1=O ?
-1

I'd appreciate the recorded outcome for CCCCCCCCCCCCCCCC(=O)O from this test.
-1

Test call for this compound, please: Cc1ccc(-c2ncc(Cl)cc2-c2ccc(S(C)(=O)=O)cc2)cn1
-1

GET /call?item= NS(=O)(=O)c1cc2c(cc1Cl)NC(CC1CCCC1)NS2(=O)=O (configuration not stated) returns the recorded outcome of this test.
-1

Given CCCCCCCCOc1ccc(C(=O)c2ccccc2)c(O)c1 , state the outcome it received in this test.
-1

Hey, what did the test say about Oc1ccccc1C=NCc1ccccc1 ?
-1

* * *

System: JCK
Test: qHTS profiling for inhibitors of Plasmodium falciparum proliferation (AID 504749); note: nearly all actives have a fitted effect of over 60% in size
Conditions: P. falciparum in erythrocytes, SYBR Green DNA, 72 h; series mostly up to 28.7 µM
Inconclusive results are not listed. Activity calls are given as the source filed them. Calls come from the whole dose curve; as a rule, active = well fitted inhibition curve with a large enough effect; inconclusive = small, poorly fitted or top-dose-only effect; inactive = flat fitted curve, though single readings scatter.
Your reply should match one of these outcome classes. TRUE for active, FALSE for inactive

Observe how each entry below is paired with its result.
[[record]]
molecule = "CCCCc1cc2ccccc2c(OCCN(C)C)n1"
system_name = "JCK"
label_value = "FALSE"

[[record]]
molecule = "Nc1ccc(S(=O)(=O)NCc2ccccc2)cc1"
system_name = "JCK"
label_value = "FALSE"

[[record]]
molecule = "O=C(Nc1cccc(C2=NCCN2)c1)Nc1cccc(C2=NCCN2)c1"
system_name = "JCK"
label_value = "TRUE"


Identify the outcome logged in this assay for the molecule shown: O[C@@H](c1cc(C(F)(F)F)nc2c(C(F)(F)F)cccc12)[C@H]1CCCCN1
TRUE

Give the logged outcome of this assay for the following molecule: COP(=O)(OC)OC(c1ccc(Cl)cc1)P(=O)(OC)OC (centres undefined)
FALSE

Answer briefly: the call reported for COc1cc(O)c(C(=O)c2ccccc2)cc1S(=O)(=O)O in this assay.
FALSE

Called result for Oc1ccccc1C=NCc1ccccc1
FALSE

Per the assay record, what outcome was assigned to CCOc1ccccc1C(N)=O ?
FALSE

* * *

System: AA1029
Test: qHTS profiling for inhibitors of Plasmodium falciparum proliferation (AID 504749); note: nearly all actives have a fitted effect of over 60% in size; note: potency is the fitted concentration of half-maximal effect
Conditions: P. falciparum in erythrocytes, SYBR Green DNA, 72 h; series mostly up to 28.7 µM
Results filed as inconclusive are left out. Calls of active or inactive are those of the source. Calls follow the shape of the dose curve; as a rule, active = well fitted inhibition curve with a large enough effect; inconclusive = small, poorly fitted or top-dose-only effect; inactive = flat fitted curve, though single readings scatter.
metric_name: Potency

[[record]]
compound = "CCOC(=O)C(C#N)=C(c1ccccc1)c1ccccc1"
metric_name = "Potency"
result = "inactive"

[[record]]
compound = "CC(C)=CCOc1ccc(/C=C/C(=O)c2ccc(OCC=C(C)C)cc2OCC(=O)O)cc1"
metric_name = "Potency"
result = "inactive"

[[record]]
compound = "CNCCCCOc1ccccc1Cc1ccccc1"
metric_name = "Potency"
result = "5.01 µM (active)"

[[record]]
compound = "NC(=S)N/N=C/c1cccnc1"
metric_name = "Potency"
result = "inactive"

[[record]]
compound = "CC(=O)OCC(=O)[C@H]1CC[C@H]2[C@@H]3CCC4=CC(=O)CC[C@]4(C)[C@H]3CC[C@]12C"
metric_name = "Potency"
result = "inactive"

[[record]]
compound = "CCOC(=O)c1ccc(N)cc1"
metric_name = "Potency"
result = "inactive"

[[record]]
compound = "Nc1ccc(S(=O)(=O)Nc2cnc3ccccc3n2)cc1"
metric_name = "Potency"
result = "inactive"

[[record]]
compound = "CCN1/C(=C/C=C/c2sc3ccccc3[n+]2CC)Sc2ccccc21"
metric_name = "Potency"
result = "0.178 µM (active)"


Using known records, supply Potency for CCOc1cc(OCC)c(C(=O)CCC(=O)O)cc1OCC
inactive

Output measured Potency for this item: CC(=O)Nc1ccc(OC(=O)c2ccccc2OC(C)=O)cc1
inactive

Check the records and state Potency for CCCCCCCCCCCCCC[N+](C)(C)Cc1ccccc1
6.31 µM (active)

Give Potency for the following compound: CNCCc1ccccn1
inactive

Dear colleague, please send me the reported Potency for C#C[C@]1(O)CC[C@H]2[C@@H]3CCc4cc(OC)ccc4[C@H]3CC[C@@]21C when you can.
inactive

Identify Potency associated with the compound C[N+]1(CC2COC(c3ccccc3)(C3CCCCC3)O2)CCCCC1 (stereo unspecified)
5.01 µM (active)

Specify measured Potency for Nc1nc(-c2ccccc2)c(Br)c(=O)[nH]1 .
inactive

Provide measured Potency value, entry: CC(C)NCC(O)c1ccc2ccccc2c1 (stereo unspecified)
5.01 µM (active)

// Input: CC(=O)NO . Output its Potency only.
inactive

Using the record for COc1cc(C(=O)NCc2ccc(OCCN(C)C)cc2)cc(OC)c1OC , state its measured Potency.
inactive
